Kindly supply the reported GI50 values for the records listed here.
# System: Ba/F3-EGFR ins. SVD cells
# Measurement protocol: Cell proliferation suppression test (CellTiter-Glo, GI50), Ba/F3-EGFR ins. SVD
# Format: cell-based
# Recorded conditions: Mus musculus, 72 h, 3 days, N=4
# Method: Cell proliferation suppression test Ba/F3-Mock, Ba/F3-EGFR WT, Ba/F3-EGFR ins. ASV, and Ba/F3-EGFR ins. […] On the day of the compound addition (day 0) and 3 days after the compound addition (day 3), ATP quantity was measured with CellTiter-Glo (registered trademark) 2.0 (Promega Corporation.), and used as an indicator of cell quantity (N=4). […] Concentrations at which cell proliferation from day 0 to day 3 was inhibited by 50% (GIso) were calculated with EXCEL.
Just the number in nM, nothing appended.

Kindly note: Ba/F3-EGFR ins. SVD cells, CCc1nnc(-c2cccc(Oc3ccc(Nc4ncnc5cc(OC)c(NC(=O)/C=C/CN(C)C)cc45)c(F)c3)c2)o1 , GI50 value reported: 27

Kindly note: Ba/F3-EGFR ins. SVD cells, COc1cc2ncnc(Nc3ccc(Oc4nn(CC(=O)NC(C)(C)C)cc4F)cc3Cl)c2cc1NC(=O)/C=C/CN1CCC(F)C1 (racemic) , GI50 value reported: 10.3

Kindly note: Ba/F3-EGFR ins. SVD cells, [2H]C([2H])([2H])C(NC(=O)n1ccc(Oc2ccc(Nc3ncnc4cc(OC)c(OC5CCN(C(=O)C=C)CC5)cc34)c(F)c2)n1)(C([2H])([2H])[2H])C([2H])([2H])[2H] , GI50 value reported: 12.4

Kindly note: Ba/F3-EGFR ins. SVD cells, COc1cc2ncnc(Nc3ccc(Oc4cccc(-c5nnc(C)o5)c4)cc3F)c2cc1NC(=O)/C=C/CN1CCCC1 , GI50 value reported: 62.2

Kindly note: Ba/F3-EGFR ins. SVD cells, C=CC(=O)N1CCC(Oc2cc3c(Nc4ccc(Oc5ccn(C(=O)NC6(C(F)(F)F)CC6)n5)cc4F)ncnc3cc2OC)CC1 , GI50 value reported: 12.8

Kindly note: Ba/F3-EGFR ins. SVD cells, COc1cc2ncnc(Nc3ccc(Oc4cccc(-c5nnc(C(C)C)o5)c4)cc3F)c2cc1NC(=O)/C=C/CN(C)C , GI50 value reported: 14.1

----------
# System: Ba/F3-EGFR ins. SVD cells
# Measurement protocol: Cell proliferation suppression test (CellTiter-Glo, GI50), Ba/F3-EGFR ins. SVD
# Format: cell-based
# Recorded conditions: Mus musculus, 72 h, 3 days, N=4
The label is Condition met for GI50 below 20 nM and Condition not met for GI50 equal to or exceeding 20 nM.

Q. Dear reviewer, please state whether C=CC(=O)N1CCC(Oc2cc3c(Nc4ccc(Oc5ccn(-c6ccc(F)nc6)n5)cc4F)ncnc3cc2OC)CC1 [Example 32] has GI50 strictly beneath 20 nM.
A. Condition met

Q. Dear reviewer, please state whether C=CC(=O)N1CCC(Oc2cc3c(Nc4ccc(Oc5nc(-c6cncc(F)c6)cs5)cc4F)ncnc3cc2OC)CC1 [Example 38] has GI50 strictly beneath 20 nM.
A. Condition met

Q. Dear reviewer, please state whether COc1cc2ncnc(Nc3ccc(Oc4cccc(CC(=O)NC(C)(C)C)c4)cc3F)c2cc1NC(=O)/C=C/CN1CCOCC1 [Example 49] has GI50 strictly beneath 20 nM.
A. Condition not met

Q. Dear reviewer, please state whether CCOc1cc2ncnc(Nc3ccc(Oc4cccc(-c5nnc(C)o5)c4)cc3F)c2cc1NC(=O)/C=C/CN[C@@H]1CCOC1 [Example 53] has GI50 strictly beneath 20 nM.
A. Condition met

Q. Dear reviewer, please state whether COc1cc2ncnc(Nc3ccc(Oc4nn(CC(=O)NC(C)(C)C)cc4F)cc3F)c2cc1NC(=O)/C=C/CN(C)C [Example 46] has GI50 strictly beneath 20 nM.
A. Condition met

----------
# Test system: Ba/F3-EGFR ins. ASV cells
# Measurement protocol: Cell proliferation suppression test (CellTiter-Glo, GI50), Ba/F3-EGFR ins. ASV
# Assay type: cell-based
# Recorded conditions: Mus musculus, 72 h, 3 days, N=4
Outcome measure: GI50 (nM)
Just the number in nM, nothing appended.

Noted for COc1cc2ncnc(Nc3ccc(Oc4nn(CC(=O)NC(C)(C)C)cc4F)cc3F)c2cc1NC(=O)/C=C/CN1CC(OC)C1 : its GI50 reads 11.9

Noted for C=CC(=O)N1CCC(Oc2cc3c(Nc4ccc(Oc5ccn(-c6ccnc(F)c6)n5)cc4F)ncnc3cc2OC)CC1 : its GI50 reads 13.5

Noted for C=CC(=O)N1CCC(Oc2cc3c(Nc4ccc(Oc5ccn(-c6cnc(C7CC7)nc6)n5)cc4F)ncnc3cc2OC)CC1 : its GI50 reads 11.9

Noted for COc1cc2ncnc(Nc3ccc(Oc4nc(CC(=O)NC(C)(C)C)cs4)cc3F)c2cc1NC(=O)/C=C/CN1CC[C@@H](OC)C1 : its GI50 reads 25.6

Noted for C=CC(=O)N1CCC(Oc2cc3c(Nc4ccc(Oc5nc(-c6ccc(CC)nc6)cs5)cc4F)ncnc3cc2OC)CC1 : its GI50 reads 20.5

Noted for CCc1nnc(-c2cccc(Oc3ccc(Nc4ncnc5cc(OC)c(NC(=O)/C=C/CN(C)C)cc45)c(F)c3)c2)o1 : its GI50 reads 8.2

Noted for C=CC(=O)N1CCC(Oc2cc3c(Nc4ccc(Oc5ccn(-c6cnc(OC)nc6)n5)cc4F)ncnc3cc2OC)CC1 : its GI50 reads 13.7

----------
# Tested on: Ba/F3-EGFR ins. ASV cells
# Measurement protocol: Cell proliferation suppression test (CellTiter-Glo, GI50), Ba/F3-EGFR ins. ASV
# Type: cell-based
# Recorded conditions: Mus musculus, 72 h, 3 days, N=4
Kindly supply the reported GI50 values for the records listed here.
Just the number in nM, nothing appended.

Noted for C=CC(=O)N1CCC(Oc2cc3c(Nc4ccc(Oc5cccc(-c6nnc(C)o6)c5)cc4F)ncnc3cc2OCC)CC1 : its GI50 reads 12.2

Noted for C=CC(=O)N1CCC(Oc2cc3c(Nc4ccc(Oc5ccn(-c6cnc(C)c(F)c6)n5)cc4F)ncnc3cc2OC)CC1 : its GI50 reads 11.6

Noted for C=CC(=O)N1CCC(Oc2cc3c(Nc4ccc(Oc5nc(C(=O)NC(C)(C)C)cs5)cc4F)ncnc3cc2OC)CC1 : its GI50 reads 12.2

Noted for C=CC(=O)N1CCC(Oc2cc3c(Nc4ccc(Oc5ccn(-c6ccnc(Cl)c6)n5)cc4F)ncnc3cc2OC)CC1 : its GI50 reads 11.3

Noted for COc1cc2ncnc(Nc3ccc(Oc4nn(CC(=O)NC(C)(C)C)cc4F)cc3F)c2cc1NC(=O)/C=C/CN(C)C : its GI50 reads 6.5

Noted for C=CC(=O)N1CCC(Oc2cc3c(Nc4ccc(Oc5ccn(C(=O)NC(C)(CF)CF)n5)cc4F)ncnc3cc2OC)CC1 : its GI50 reads 12.4

Noted for CCOc1cc2ncnc(Nc3ccc(Oc4cccc(-c5nnc(C6CC6)o5)c4)cc3F)c2cc1NC(=O)/C=C/CN(C)C : its GI50 reads 11.8

Noted for C=CC(=O)N1CCC(Oc2cc3c(Nc4ccc(Oc5cccc(-c6nnc(C)o6)c5)cc4Cl)ncnc3cc2OC)CC1 : its GI50 reads 44.5

Noted for COc1cc2ncnc(Nc3ccc(Oc4nc(-c5nnc(C6CC6)o5)cs4)cc3F)c2cc1NC(=O)/C=C/CN1CC[C@@H](F)C1 : its GI50 reads 43.9

Noted for C=CC(=O)N1CCC(Oc2cc3c(Nc4ccc(Oc5nc(-c6cncc(F)c6)cs5)cc4F)ncnc3cc2OC)CC1 : its GI50 reads 17

Noted for COc1cc2ncnc(Nc3ccc(Oc4ccn(C(=O)N5CCCC5)n4)cc3F)c2cc1NC(=O)/C=C/CN(C)C : its GI50 reads 17.5

Noted for C=CC(=O)N1CCC(Oc2cc3c(Nc4ccc(Oc5ccn(-c6ccc(C7CC7)nc6)n5)cc4F)ncnc3cc2OC)CC1 : its GI50 reads 15.5

Noted for COc1cc2ncnc(Nc3ccc(Oc4nn(CC(=O)NC(C)(C)C)cc4F)cc3Cl)c2cc1NC(=O)/C=C/CN1CCC(F)C1 (racemic) : its GI50 reads 12.9

Noted for C=CC(=O)N1CCC(Oc2cc3c(Nc4ccc(Oc5nc(-c6cnc(C)nc6)cs5)cc4F)ncnc3cc2OC)CC1 : its GI50 reads 12

----------
# System: Ba/F3-EGFR ins. ASV cells
# Measurement protocol: Cell proliferation suppression test (CellTiter-Glo, GI50), Ba/F3-EGFR ins. ASV
# Assay type: cell-based
# Recorded conditions: Mus musculus, 72 h, 3 days, N=4
Kindly supply the reported GI50 values for the records listed here.
Just the number in nM, nothing appended.

Noted for COc1cc2ncnc(Nc3ccc(Oc4cccc(-c5nnc(C)o5)c4)cc3F)c2cc1NC(=O)/C=C/CN1CCCC1 [Example 50] : its GI50 reads 10.9

Noted for C=CC(=O)N1CCC(Oc2cc3c(Nc4ccc(Oc5ccn(C(=O)NC(C)C)n5)cc4F)ncnc3cc2OC)CC1 [Example 6] : its GI50 reads 19.2

Noted for C=CC(=O)N1CCC(Oc2cc3c(Nc4ccc(Oc5cccc(C(=O)NC(C)(C)C)c5)cc4F)ncnc3cc2OC)CC1 [Example 1] : its GI50 reads 15.5

Noted for C=CC(=O)N1CCC(Oc2cc3c(Nc4ccc(Oc5nc(-c6nnc(C(C)C)o6)cs5)cc4F)ncnc3cc2OC)CC1 [Example 33] : its GI50 reads 11.3

Noted for COc1cc2ncnc(Nc3ccc(Oc4cccc(CC(=O)NC(C)(C)C)c4)cc3F)c2cc1NC(=O)/C=C/CN1CCOCC1 [Example 49] : its GI50 reads 20.7

Noted for C=CC(=O)N1CCC(Oc2cc3c(Nc4ccc(Oc5nc(-c6ccc(OC)nc6)cs5)cc4F)ncnc3cc2OC)CC1 [Example 35] : its GI50 reads 14.8

Noted for COc1cc2ncnc(Nc3ccc(Oc4nc(-c5nnc(C6CC6)o5)cs4)cc3F)c2cc1NC(=O)/C=C/CN1CC[C@@H](OC)C1 [Example 63] : its GI50 reads 49.5

Noted for COc1cc2ncnc(Nc3ccc(Oc4cccc(-c5nnc(C)o5)c4)cc3F)c2cc1NC(=O)/C=C/CN(C)C [Example 39] : its GI50 reads 12.2

Noted for C=CC(=O)N1CCC(Oc2cc3c(Nc4ccc(Oc5nc(-c6cnc(OC)nc6)cs5)cc4F)ncnc3cc2OC)CC1 [Example 16] : its GI50 reads 11.4

Noted for COc1cc2ncnc(Nc3ccc(Oc4nn(CC(=O)NC(C)(C)CF)cc4F)cc3Cl)c2cc1NC(=O)/C=C/CN(C)C [Example 48] : its GI50 reads 8.1

Noted for C=CC(=O)N1CCC(Oc2cc3c(Nc4ccc(Oc5nc(-c6ccc(C)nc6)cs5)cc4F)ncnc3cc2OC)CC1 [Example 37] : its GI50 reads 10.5

Noted for C=CC(=O)N1CCC(Oc2cc3c(Nc4ccc(Oc5ccn(C(=O)NC(C)(C)CF)n5)cc4F)ncnc3cc2OC)CC1 [Example 5] : its GI50 reads 5.4

Where do the numbers come from? From patent US20230025510A1.
